# test system: ParC^S87N/E91G N. gonorrhoeae topoisomerase IV (Neisseria gonorrhoeae, UniProt P48374, E91G/S87N)
# Sequence (P48374 1-768 S87N/E91G): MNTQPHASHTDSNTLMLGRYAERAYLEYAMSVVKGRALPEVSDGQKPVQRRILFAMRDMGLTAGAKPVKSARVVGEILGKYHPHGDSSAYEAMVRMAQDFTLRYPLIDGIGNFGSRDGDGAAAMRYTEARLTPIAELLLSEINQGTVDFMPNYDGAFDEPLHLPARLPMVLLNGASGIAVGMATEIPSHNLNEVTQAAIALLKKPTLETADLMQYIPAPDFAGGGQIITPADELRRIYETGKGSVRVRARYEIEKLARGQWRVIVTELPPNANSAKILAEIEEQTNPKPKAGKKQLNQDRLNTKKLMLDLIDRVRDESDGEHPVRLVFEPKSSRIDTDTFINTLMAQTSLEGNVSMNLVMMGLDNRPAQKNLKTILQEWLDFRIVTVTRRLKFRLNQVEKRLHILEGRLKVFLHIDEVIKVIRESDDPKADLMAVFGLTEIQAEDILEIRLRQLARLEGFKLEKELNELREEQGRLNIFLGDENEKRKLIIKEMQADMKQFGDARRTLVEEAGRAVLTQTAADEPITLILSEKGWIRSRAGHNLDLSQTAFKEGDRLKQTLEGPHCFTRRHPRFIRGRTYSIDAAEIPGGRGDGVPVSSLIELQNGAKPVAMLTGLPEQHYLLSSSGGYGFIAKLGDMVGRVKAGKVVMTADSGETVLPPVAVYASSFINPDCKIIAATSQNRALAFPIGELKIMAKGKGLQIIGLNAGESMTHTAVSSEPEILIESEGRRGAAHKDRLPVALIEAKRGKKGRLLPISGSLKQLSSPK
# test protocol: Topoisomerase IV-catalyzed DNA decatenation, ParC S87N/E91G
measured parameter: IC50

Ask | Entry O=C(O)c1cn(C2CC2)c2cc(N3CCNCC3)c(F)cc2c1=O has what IC50?
Reply | > 500 µM

Values were extracted from paper PMC11015056.
